- targetOrSystem: Cytochrome P450 2D6 (Homo sapiens) (UniProt P10635)
- Sequence (P10635 whole entry, looked up): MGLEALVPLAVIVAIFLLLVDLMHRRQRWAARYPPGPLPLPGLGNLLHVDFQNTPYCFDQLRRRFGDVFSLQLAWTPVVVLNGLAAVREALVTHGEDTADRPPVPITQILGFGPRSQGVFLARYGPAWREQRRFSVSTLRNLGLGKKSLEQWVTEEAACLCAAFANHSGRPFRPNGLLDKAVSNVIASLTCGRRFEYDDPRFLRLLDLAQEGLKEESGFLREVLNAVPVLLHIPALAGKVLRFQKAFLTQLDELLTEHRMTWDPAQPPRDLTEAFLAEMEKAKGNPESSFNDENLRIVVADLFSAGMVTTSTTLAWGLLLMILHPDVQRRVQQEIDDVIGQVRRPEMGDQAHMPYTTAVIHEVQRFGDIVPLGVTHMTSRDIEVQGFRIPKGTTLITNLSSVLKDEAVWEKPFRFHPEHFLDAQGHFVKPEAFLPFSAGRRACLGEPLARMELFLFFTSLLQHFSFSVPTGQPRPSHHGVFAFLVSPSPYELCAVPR
- assayName: Cytochrome panel assay with activity outcomes
- conditionInfo: recombinant CYP, pro-luciferin dealkylation, luminescence, p450-cyp2d6; series mostly up to 57.1 µM
- Experimental: The P450 gene superfamily is involved in the metabolism and clearance of xenobiotics. This assay used various human CYP P450 isozymes to measure the dealkylation of various pro-luciferin substrates to luciferin. The luciferin is then measured by luminescence after the addition of a luciferase detection reagent. […] Inhibitors and some substrates limit the production of luciferin, and decrease measured luminescence. […] 8, Detection, 1 sec, ViewLux luminescent read […]
Out of some 16,000 compounds screened, about 2,600 (16%) were called active. Another 20% or so got no clear call; they are omitted. A selection follows.

>  <compound>
CCNc1ncc2nc(C)c(=O)n(Cc3ccc(F)cc3)c2n1

>  <targetOrSystem>
Cytochrome P450 2D6 (Homo sapiens) (UniProt P10635)

>  <AC50>
inactive

$$$$
>  <compound>
COc1cc2ccc(=O)oc2cc1O

>  <targetOrSystem>
Cytochrome P450 2D6 (Homo sapiens) (UniProt P10635)

>  <AC50>
inactive

$$$$
>  <compound>
Cc1cnc(CNc2ncnc3ccc(-c4ccc5c(c4)OCO5)cc23)cn1

>  <targetOrSystem>
Cytochrome P450 2D6 (Homo sapiens) (UniProt P10635)

>  <AC50>
12.6 µM (active)

$$$$
>  <compound>
CCn1c(SCc2ccc(C(=O)Nc3nccs3)cc2)nnc1-c1ccc(NC(C)=O)cc1

>  <targetOrSystem>
Cytochrome P450 2D6 (Homo sapiens) (UniProt P10635)

>  <AC50>
inactive

$$$$
>  <compound>
Cc1cc(N2CCOCC2)ccc1/C=C1\SC(=O)N(C(C)C)C1=O

>  <targetOrSystem>
Cytochrome P450 2D6 (Homo sapiens) (UniProt P10635)

>  <AC50>
inactive

$$$$
>  <compound>
Cc1cccc(CNc2ncnc3ccc(-c4ccc5c(c4)OCO5)cc23)c1

>  <targetOrSystem>
Cytochrome P450 2D6 (Homo sapiens) (UniProt P10635)

>  <AC50>
0.501 µM (active)

$$$$
>  <compound>
Cc1cccc(CNc2ncnc3ccc(-c4ccoc4)cc23)c1

>  <targetOrSystem>
Cytochrome P450 2D6 (Homo sapiens) (UniProt P10635)

>  <AC50>
10 µM (active)

$$$$
>  <compound>
CCOC(=O)c1nn(-c2ccccc2)c(-c2ccccc2)c1C(=O)c1ccccc1

>  <targetOrSystem>
Cytochrome P450 2D6 (Homo sapiens) (UniProt P10635)

>  <AC50>
inactive

$$$$
>  <compound>
COc1ccc(CCC(C)NC2C3CC4CC(C3)CC2C4)cc1 (stereo unspecified)

>  <targetOrSystem>
Cytochrome P450 2D6 (Homo sapiens) (UniProt P10635)

>  <AC50>
3.55 µM (active)

$$$$
>  <compound>
CCC(C)NC(=O)C1CC(c2ccc(OC)cc2)=NO1 (stereo unspecified)

>  <targetOrSystem>
Cytochrome P450 2D6 (Homo sapiens) (UniProt P10635)

>  <AC50>
inactive

$$$$
>  <compound>
Cc1cnc(CNc2ncncc2-c2ccc(C(=O)N(C)C)cc2)cn1

>  <targetOrSystem>
Cytochrome P450 2D6 (Homo sapiens) (UniProt P10635)

>  <AC50>
inactive

$$$$
